system: RPMI-8226 leukemia; test: NCI-60 one-dose screen, 48 h (100 = growth as untreated, 0 = no growth, -100 = all killed); conditions: 10 µM unless noted
About 83,000 compounds went through this panel and 20% of them were active in at least one assay; those are over-represented in the sample as a whole.
Could you mark each record fulfilled if its growth falls strictly under 70%, and not fulfilled if it equals or exceeds it?

INSERT INTO measurements (molecule, target_desc, answer_label) VALUES
  ('COc1cc(NC(N)=NCCC(C)(C)Oc2ccc(C(F)(F)F)cc2)ncc1C#N', 'RPMI-8226 leukemia', 'fulfilled'),
  ('CCO/C=N/C1=C(C#N)C(c2ccc(Cl)cc2)c2c(c3ccc(C)cc3[nH]c2=O)O1 (stereo not drawn)', 'RPMI-8226 leukemia', 'fulfilled'),
  ('COc1ccc(-c2nc(-c3nc4cc(C)c(C)cc4[nH]3)cc3c2[nH]c2ccccc23)cc1', 'RPMI-8226 leukemia', 'fulfilled'),
  ('CC(=O)Oc1cccc(S(=O)(=O)n2cc(C(=O)C(=O)Nc3ccncc3)c3ccccc32)c1', 'RPMI-8226 leukemia', 'fulfilled'),
  ('Cc1nc2c3c(ncn2n1)Oc1c(c(=O)[nH]c2ccccc12)C3c1ccc(Cl)cc1 (stereo not drawn)', 'RPMI-8226 leukemia', 'not fulfilled'),
  ('O=c1ccn(-c2ncnc3nc[nH]c23)cc1', 'RPMI-8226 leukemia', 'not fulfilled'),
  ('COc1cc(C(=O)/C=C/c2c(C)n([O-])c3ccc(C(F)(F)F)cc3[n+]2=O)cc(OC)c1OC', 'RPMI-8226 leukemia', 'fulfilled'),
  ('COc1ccc(S(=O)(=O)n2ccc(-c3ccc4c(c3)CCC(C)(C)O4)n2)cc1OC', 'RPMI-8226 leukemia', 'fulfilled'),
  ('CCCN=C1NC(=O)/C(=C/c2nc(-c3ccc(OC)cc3)n3ccccc23)S1', 'RPMI-8226 leukemia', 'not fulfilled'),
  ('COc1ccc(-c2ccc(-c3ccc(C(=N)N)cn3)s2)cc1OC', 'RPMI-8226 leukemia', 'not fulfilled'),
  ('COc1ccc(Nc2nn3c(C)cc(C)nc3c2C(=O)Nc2ccc(C)cc2)c(OC)c1', 'RPMI-8226 leukemia', 'not fulfilled'),
  ('COc1ccc(C2C=C(c3ccc(N)cc3)N=C3SC=CN32)cc1OC (stereo not drawn)', 'RPMI-8226 leukemia', 'not fulfilled');
